# maps each entry to its activity at 1000 µM
Target: acetylpolyamine amidohydrolase (the present enzyme, product purified to homogeneity) (Mycoplana ramosa)
Construct: novel acetylpolyamine amidohydrolase of the present invention accumulated within the grown cells; made in house; host or cells: Mycoplana (natural producer)
Sequence (Q48935 whole entry): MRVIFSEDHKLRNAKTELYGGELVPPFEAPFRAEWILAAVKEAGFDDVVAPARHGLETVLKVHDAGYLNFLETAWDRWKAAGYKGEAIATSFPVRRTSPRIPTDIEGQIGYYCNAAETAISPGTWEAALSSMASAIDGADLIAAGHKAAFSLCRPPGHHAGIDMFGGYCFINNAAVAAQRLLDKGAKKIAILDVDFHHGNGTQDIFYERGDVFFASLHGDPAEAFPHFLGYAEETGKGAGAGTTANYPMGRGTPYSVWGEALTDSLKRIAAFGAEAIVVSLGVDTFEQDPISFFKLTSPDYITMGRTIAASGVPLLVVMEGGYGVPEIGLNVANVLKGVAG
Experiment: Effects of various compounds upon enzyme activity, product purified to homogeneity (Method 1)
Type: biochemical, Mycoplana bullata
Conditions: compound 1.0 mM; 50 mM Tris-HCl pH 7.0, 37° C., 10 minutes; residual activity; read-out: Relative Activity (%) at 1.0 mM
Where a name gives a salt, the structure may show the parent alone.
# unit: % | format: bare number

Sample answers from the record:
compound=c1cnc2c(c1)ccc1cccnc12 units_symbol=% recorded_result=95
compound="NNC(N)=O [Semicarbazide hydrochloride]" units_symbol=% recorded_result=91
compound=c1ccc(-c2ccccn2)nc1 units_symbol=% recorded_result=92

State the recorded activity at 1000 µM for this entry: CCN(CC)C(=S)S [DDC, Diethyldithiocarbamate]
94
